Source of measurements: ChEMBL document CHEMBL4483862

System: Plasmodium berghei
Experiment: Luciferase/luciferin-expressing antifolate-resistant parasites were used to infect a culture of HepG2 cells that were pre-incubated with compounds. Infected hepatocytes emit light due to the luciferase reaction. Assay results are presented as the percent inhibition of light emission compared to control. […]
Format: functional
Details: sporozoite, read-out: LUCIFERASE INFECTION ASSAY - IC90
readout-type: IC90

Record request: IC90 value, item CS(=O)(=O)c1ccc(-c2cnc3c(NC=O)cc(-c4ccsc4)cn23)cc1
4.59 µM

Record request: IC90 value, item O=C(CCCC(=O)Nc1cc(C(F)(F)F)cc(C(F)(F)F)c1)Nc1cc(C(F)(F)F)cc(C(F)(F)F)c1
> 5.95 µM

Record request: IC90 value, item CCCCn1c(N)c(N(C)CC(=O)Nc2scc(-c3ccccc3)c2C(=O)OCC)c(=O)[nH]c1=O
8.26 µM

Record request: IC90 value, item CSc1ccc(C=C2C(=O)OC(C)(C)OC2=O)s1
> 11.6 µM

Record request: IC90 value, item FC(F)(F)c1c(-c2ccccc2)c2cc(Cl)ccc2n1Cc1ccccc1
> 8.55 µM

Record request: IC90 value, item COc1cc(-c2cnc3cnc(-c4ccccc4Cl)cn23)ccc1O
> 9.38 µM

Record request: IC90 value, item CN(Cc1ccc(Cl)cc1Cl)C(=O)NCc1ccc(S(=O)(=O)N2CCCCC2)cc1
> 10 µM

Record request: IC90 value, item CN(CC(=O)Nc1nc2ccc(Cl)cc2s1)S(=O)(=O)c1ccc(C#N)cc1
8.36 µM

Record request: IC90 value, item O=C(N/N=C1/C(=O)c2cccc3cccc1c23)c1cccc(S(=O)(=O)N2CCCCC2)c1
> 10 µM

Record request: IC90 value, item O=C(OCc1csc(-c2ccccc2)n1)c1ccccc1Sc1ccc(C(F)(F)F)cc1[N+](=O)[O-]
> 10 µM

Record request: IC90 value, item Cc1sc2ncnc(Sc3nnc(-c4cccs4)n3-c3ccccc3)c2c1C
3.96 µM

Record request: IC90 value, item CCOc1ccc(CN(CC)C(=O)c2ccc(=O)[nH]c2)cc1OC
> 10 µM

Record request: IC90 value, item c1cnc(N2CCN(CCCNc3ncnc4sccc34)CC2)nc1
> 10 µM

Record request: IC90 value, item Cc1ccc(SCc2ccccc2C(=O)Nc2cc(Cl)ccc2O)cc1
> 8.6 µM

Record request: IC90 value, item COc1ccc(-c2nc3ccc(NC(=O)Nc4ccc(OC)c(OC)c4)cn3n2)cc1
> 10 µM

Record request: IC90 value, item Cc1cc(C(C)(C)C)cc(C)c1N1C(=O)C=CC1=O
> 12.8 µM

Record request: IC90 value, item CC(=O)NCCCc1ccc(C(=O)COC(=O)c2cc(Cl)c[nH]2)cc1
> 10 µM

Record request: IC90 value, item O=C(NC1CCSc2ccccc21)c1cnn(Cc2ccccc2Cl)c1 (stereo not drawn)
> 10 µM

Record request: IC90 value, item OC12CC3CC(C1)CC(c1cc(-c4ccccc4Cl)c4cc(Cl)ccc4n1)(C3)C2
> 10 µM

Record request: IC90 value, item CO/N=C(/CS(=O)(=O)c1ccc(Cl)cc1)c1ccc(Cl)cc1
3.25 µM

Record request: IC90 value, item Fc1ccc(-c2csc3ncnc(NC4CCN(Cc5ccccc5)C4)c23)cc1 (stereo not drawn)
> 10 µM

Record request: IC90 value, item O=C1Nc2ccccc2/C1=C/c1ccccc1N1CCOCC1
> 10.8 µM

Record request: IC90 value, item COc1cc(NCc2cc(Cl)cc(Cl)c2OC)ccc1NC(=O)C(C)C
8.02 µM

Record request: IC90 value, item O=C(CN1CC=C(c2c[nH]c3ccccc23)CC1)Nc1ccccc1OC(F)F
> 10 µM

Record request: IC90 value, item COC(=O)c1occc1/C=C/C(=O)c1ccc2c(c1)CCC2
> 10 µM

Record request: IC90 value, item Cc1cc(-n2c(C)cc(/C=C3\S/C(=N\C4CCCC4)NC3=O)c2C)no1
> 10 µM

Record request: IC90 value, item CCOC(=O)C1SC(C(C#N)c2ccccn2)=NC1(c1ccc(C)cc1)C(F)(F)F (stereo not drawn)
> 10 µM

Record request: IC90 value, item COc1ccc(C(=O)Nc2cccc(/C=C3\S/C(=N\C4CCCC4)NC3=O)c2)cc1
> 10 µM

Record request: IC90 value, item CCOC(=O)c1c(C)[nH]c(C(=O)CSc2nccn2C)c1C
0.204 µM

Record request: IC90 value, item O=C(Nc1ccc(-c2csc(NC(=O)c3c[nH]nc3-c3ccccc3)n2)cc1)c1ccccc1
7.36 µM

Record request: IC90 value, item Fc1ccc(CSc2nnnn2-c2ccc3c(c2)OCO3)c(Cl)c1
8.12 µM

Record request: IC90 value, item CCN(CC)C(CNc1ccc([N+](=O)[O-])cn1)Cc1ccccc1 (stereo not drawn)
> 10 µM

Record request: IC90 value, item O=c1ccn(-c2ccc(Cl)cc2)nc1-c1ccnc(-c2ccccc2)n1
> 9.15 µM

Record request: IC90 value, item CCc1nc2ccccc2c(C(=O)OCC(=O)Nc2ccc(C#N)cc2)c1C
> 10 µM

Record request: IC90 value, item CCO/C(C)=N\OC(=O)c1c(-c2c(Cl)cccc2Cl)noc1C
> 9.24 µM

Record request: IC90 value, item Fc1ccc(N2CCN(c3nc(CN4CCOCC4)nc4scc(-c5ccccc5)c34)CC2)cc1
> 10 µM

Record request: IC90 value, item CC(C)(C)c1ccc(C2=NNC(=NCCCN3CCOCC3)SC2)cc1
9.2 µM

Record request: IC90 value, item Cc1nc2ccccc2c(=O)n1/N=C/c1cn(-c2ccccc2)nc1-c1cccs1
> 10 µM

Record request: IC90 value, item Oc1cccc(-c2cnc3cnc(-c4ccco4)cn23)c1
> 11.9 µM

Record request: IC90 value, item Nc1nc(Nc2cc(Cl)cc(Cl)c2)c2[nH]cnc2n1
8.62 µM

Record request: IC90 value, item O=C1C=CC(=O)N1c1ccc(C2CCCCC2)cc1
11.3 µM

Record request: IC90 value, item CC1CCC(NC(=O)c2ccc(S(=O)(=O)Nc3ccccc3)cc2)CC1 (stereo not drawn)
> 10 µM

Record request: IC90 value, item CSC1=CC(=O)CC(C)(C)S1
> 17.5 µM

====

Test system: Plasmodium berghei
Assay: Luciferase/luciferin-expressing antifolate-resistant parasites were used to infect a culture of HepG2 cells that were pre-incubated with compounds. Infected hepatocytes emit light due to the luciferase reaction. Assay results are presented as the percent inhibition of light emission compared to control. […]
Type: functional
Conditions: sporozoite, HEPG2TOX_HILL_SLOPE 2.99, HEPG2TOX_R_SQUARED 0.923, PBLUC_HILL_SLOPE 3.57, PBLUC_R_SQUARED 0.717, read-out: LUCIFERASE INFECTION ASSAY - IC50
readout-type: pIC50
pIC50 is defined as minus the log10 of a concentration measured in mol/L.

Record request: pIC50 value, item COc1ccc(-c2cnc3cnc(-c4ccco4)cn23)cc1
5.38

====

Tested on: Plasmodium berghei
Experiment: Luciferase/luciferin-expressing antifolate-resistant parasites were used to infect a culture of HepG2 cells that were pre-incubated with compounds. Infected hepatocytes emit light due to the luciferase reaction. Assay results are presented as the percent inhibition of light emission compared to control. […]
Type: functional
Conditions: sporozoite, HEPG2TOX_HILL_SLOPE 4.02, HEPG2TOX_R_SQUARED 0.911, PBLUC_HILL_SLOPE 2.5, PBLUC_R_SQUARED 0.399, read-out: LUCIFERASE INFECTION ASSAY - IC50
readout-type: pIC50
pIC50 is defined as minus the log10 of a concentration measured in mol/L.

Record request: pIC50 value, item Fc1cccc(-c2nc3ccnc(Nc4cccc(Oc5ccccc5)c4)c3[nH]2)c1
5.43

====

System: Plasmodium berghei
Test: Luciferase/luciferin-expressing antifolate-resistant parasites were used to infect a culture of HepG2 cells that were pre-incubated with compounds. Infected hepatocytes emit light due to the luciferase reaction. Assay results are presented as the percent inhibition of light emission compared to control. […]
Format: functional
Conditions: sporozoite, HEPG2TOX_HILL_SLOPE 3.65, HEPG2TOX_R_SQUARED 0.679, PBLUC_HILL_SLOPE 2.42, PBLUC_R_SQUARED 0.708, read-out: LUCIFERASE INFECTION ASSAY - IC50
readout-type: pIC50
pIC50 is defined as minus the log10 of a concentration measured in mol/L.

Record request: pIC50 value, item Fc1cccc(-c2cnc3cnc(-c4ccncc4)cn23)c1
5.25

====

Tested on: Plasmodium berghei
Experiment: Luciferase/luciferin-expressing antifolate-resistant parasites were used to infect a culture of HepG2 cells that were pre-incubated with compounds. Infected hepatocytes emit light due to the luciferase reaction. Assay results are presented as the percent inhibition of light emission compared to control. […]
Type: functional
Conditions: sporozoite, HEPG2TOX_HILL_SLOPE 3.35, HEPG2TOX_R_SQUARED 0.946, PBLUC_HILL_SLOPE 1.13, PBLUC_R_SQUARED 0.756, read-out: LUCIFERASE INFECTION ASSAY - IC50
readout-type: IC50 (nM)
Report as a plain number; the unit nM is understood.

Record request: IC50 value, item COc1cc(NCc2cc(Cl)cc(Cl)c2OC)ccc1NC(=O)C(C)C
1150
